# tgt: Threonine--tRNA ligase (Salmonella enterica)
# Sequence (A0A3F3IEK2 whole entry): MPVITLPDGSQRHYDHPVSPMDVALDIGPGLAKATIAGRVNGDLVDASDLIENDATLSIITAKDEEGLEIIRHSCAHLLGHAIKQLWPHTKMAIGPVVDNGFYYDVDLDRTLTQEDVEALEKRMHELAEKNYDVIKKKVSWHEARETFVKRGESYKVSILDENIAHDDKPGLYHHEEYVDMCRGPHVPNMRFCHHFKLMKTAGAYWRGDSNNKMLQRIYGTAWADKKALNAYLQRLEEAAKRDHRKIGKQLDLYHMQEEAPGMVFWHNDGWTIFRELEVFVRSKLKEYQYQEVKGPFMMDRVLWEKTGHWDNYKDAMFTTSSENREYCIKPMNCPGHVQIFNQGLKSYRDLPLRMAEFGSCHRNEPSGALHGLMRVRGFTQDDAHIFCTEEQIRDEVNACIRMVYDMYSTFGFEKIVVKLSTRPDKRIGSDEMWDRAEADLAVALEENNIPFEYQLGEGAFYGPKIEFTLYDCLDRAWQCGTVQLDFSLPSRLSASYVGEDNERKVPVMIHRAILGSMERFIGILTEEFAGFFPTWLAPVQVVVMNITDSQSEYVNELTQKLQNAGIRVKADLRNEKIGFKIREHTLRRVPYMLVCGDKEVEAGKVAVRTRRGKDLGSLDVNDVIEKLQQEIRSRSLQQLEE
# protocolSummary: Inhibition of recombinant salmonella enterica threonyl-tRNA synthetase assessed as reduction in enzyme activity incubated for 20 min by Kinase Glo luminescence assay
pIC50: −log10 of the molar value.
Threshold rule: pIC50 greater than or equal to 6 is satisfied; below that, not satisfied.

Example entries and their recorded answers appear below.
C[C@@H](O)[C@H](N)C(=O)N[C@@H](CNC(=O)CCn1cnc2cc(Br)c(Cl)cc2c1=O)c1cccc(-c2ccc3ccccc3c2)c1
not satisfied
C[C@@H](O)[C@H](N)C(=O)N[C@@H](CNC(=O)CCn1cnc2cc(Cl)c(Cl)cc2c1=O)c1cccc(-c2ccc(Cl)cc2)c1
not satisfied
CN[C@H](C(=O)N[C@@H](CNC(=O)CCn1cnc2cc(Cl)c(F)cc2c1=O)c1cccc(-c2ccccc2)c1)[C@@H](C)O
not satisfied

Assess whether reported pIC50 for "C[C@@H](O)[C@H](N)C(=O)N[C@@H](CNC(=O)CCn1cnc2cc(Cl)c(F)cc2c1=O)c1cccc(-c2ccccc2)c1" sits at 6 or higher. satisfied

Assess whether reported pIC50 for "C[C@@H](O)[C@H](N)C(=O)N[C@H](CNC(=O)CCn1cnc2cc(Br)c(Cl)cc2c1=O)c1cccc(-c2ccc3c(c2)CNC3=O)c1" sits at 6 or higher. not satisfied

Assess whether reported pIC50 for "C[C@@H](O)[C@H](N)C(=O)N[C@@H](CNC(=O)CCn1cnc2cc(Br)c(Cl)cc2c1=O)c1cccc(-c2ccc3[nH]ncc3c2)c1" sits at 6 or higher. satisfied

Assess whether reported pIC50 for "C[C@@H](O)[C@H](N)C(=O)N(CCC(=O)NCCn1cnc2cc(Br)c(Cl)cc2c1=O)Cc1cccc(-c2ccc3c(c2)CNC3=O)c1" sits at 6 or higher. not satisfied
